What ELISA (T/B) was measured for each of the following?
# target-of-assay: T1, human plasma kallikrein (human, UniProt P03952 20-390; P03952 391-638)
# T1 construct: two disulfide-linked chains; NP_000883.2; also called pKal; hpKal
# T1 sequence (P03952 20-390 limits assumed, chain 1 of 2): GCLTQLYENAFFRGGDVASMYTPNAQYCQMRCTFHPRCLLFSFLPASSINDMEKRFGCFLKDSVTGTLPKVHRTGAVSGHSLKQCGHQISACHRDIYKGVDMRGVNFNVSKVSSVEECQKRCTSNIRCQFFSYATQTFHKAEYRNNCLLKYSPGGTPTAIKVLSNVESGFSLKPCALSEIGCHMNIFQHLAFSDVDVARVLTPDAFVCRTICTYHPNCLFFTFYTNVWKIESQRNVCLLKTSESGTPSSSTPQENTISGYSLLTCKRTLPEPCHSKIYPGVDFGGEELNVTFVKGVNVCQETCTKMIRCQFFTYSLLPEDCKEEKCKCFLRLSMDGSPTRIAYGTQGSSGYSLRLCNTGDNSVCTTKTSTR
# T1 sequence (P03952 391-638 limits assumed, chain 2 of 2): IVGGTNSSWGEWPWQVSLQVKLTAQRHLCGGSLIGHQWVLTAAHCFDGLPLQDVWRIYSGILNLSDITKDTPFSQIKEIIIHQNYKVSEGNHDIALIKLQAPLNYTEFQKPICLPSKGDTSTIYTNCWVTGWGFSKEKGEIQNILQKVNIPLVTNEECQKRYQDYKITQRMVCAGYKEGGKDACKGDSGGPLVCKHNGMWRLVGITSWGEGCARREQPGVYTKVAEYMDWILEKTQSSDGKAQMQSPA
# measurement-protocol: ELISA, biotinylated pKal signal over streptavidin background
Write no unit; give the number alone.

Input: Return reported ELISA (T/B); argument: M73-D06 (Fab, V domains shown) VH: EVQLLESGGGLVQPGGSLRLSCAASGFTFSRYEMYWVRQAPGKGLEWVSSISSSGGPTAYADSVKGRFTISRDNSKNTLYLQMNSLRAEDTAMYYCAKGTPKWELLLRSIYIENAFDIWGQGTMVTVSS VL: QSELTQPPSASETPGQRVTISCSGSSSNIGSNTVSWFQQLPGSAPRLLIYNDHRRPSGVPDRFSGSKSGTSASLVISGLQSQDEADYYCSAWDDSLNGVVFGGGTKLTVL
Output: 4

Input: M110-C12 (Fab, V domains shown) VH: EVQLLESGGGLVQPGGSLRLSCAASGFTFSYYEMDWVRQAPGKGLEWVSGISSSGGHTAYADSVKGRFTISRDNSKNTLYLQMNSLRAEDTATYYCARERRSSSRARYYYGMDVWGQGTTVTVSS VL: DIQMTQSPLSLSVTPGEPASISCRSSLSLLHSNGYNYLDWYVQRPGQSPQLLMYLSSTRASGVPDRFSGSGSGTDFTLEISRVEAEDVGVYYCMQPLETPPTFGGGTKVEIK ?
Output: 2.4

Input: M146-E12 (Fab, V domains shown, claim 26 (viii) gives VL 265 and VH 266 instead) VH: EVQLLESGGGLVQPGGSLRLSCAASGFTFSRYIMHWVRQAPGKGLEWVSSISPSGGLTSYADSVKGRFTISRDNSKNTLYLQMNSLRAEDTAVYYCAREFENAYHYYYYGMDVWGQGTTVTVSS VL: DIQMTQSPSSLSASVGDRVTITCRASGDIGNALGWYQQKPGKAPRLLISDASTLQSGVPLRFSGSGSGTEFTLTISSLQPEDFATYYCLQGYNYPRTFGQGTKLEIR ?
Output: 49.6

Input: M6-D09 (Fab, V domains shown, also called M06-D09; 559A-M06-D09) VH: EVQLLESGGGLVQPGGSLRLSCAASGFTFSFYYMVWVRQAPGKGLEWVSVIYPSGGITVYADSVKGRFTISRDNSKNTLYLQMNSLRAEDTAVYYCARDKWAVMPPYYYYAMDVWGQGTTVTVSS VL: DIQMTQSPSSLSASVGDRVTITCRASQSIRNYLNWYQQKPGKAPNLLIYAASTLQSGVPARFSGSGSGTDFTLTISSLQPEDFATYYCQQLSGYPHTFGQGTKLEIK ?
Output: 39.9

Input: M145-D01 (Fab, V domains shown) VH: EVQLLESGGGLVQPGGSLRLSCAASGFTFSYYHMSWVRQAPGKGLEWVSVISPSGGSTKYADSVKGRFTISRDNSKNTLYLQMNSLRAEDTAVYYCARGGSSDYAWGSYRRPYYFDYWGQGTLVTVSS VL: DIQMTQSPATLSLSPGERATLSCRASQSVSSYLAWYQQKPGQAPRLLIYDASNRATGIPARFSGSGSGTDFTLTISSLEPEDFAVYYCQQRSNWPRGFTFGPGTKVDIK ?
Output: 6.2
